- ASSAY NAME: protein stability index of a GFP-peptide fusion (GPS, HEK-293T) (PSI 1-6); higher = more stable;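 further: 24-mer peptide tiles fused after GFP, lentivirally expressed, FACS-sorted into six equal bins by GFP/DsRed ratio, decoded by Illumina sequencing, PSI is the read-weighted mean bin number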
- CONDITIONS: treatment: MLN4924 1 uM, 8 h; c terminus: a fixed tail appended
Entry flag: Condition met if protein stability index reaches 3; Condition not met if it does not.

> print(dat)
                       primary.sequence     category.label
 1      GHRYPCFFNTLHVGGTIRTCQKFL [POP5]  Condition not met
 2   GGVGGSSRARSASSPRGMVRVCDL [ANKRD17]      Condition met
 3     FSDDEEDLNSKGKKREFRFHPIKE [INTS3]      Condition met
 4      PGRDRVGREDEDGWETRGDRKARK [HES6]      Condition met
 5     RPRALPCQRSRYRDSLTQPDEEPM [RSPH3]      Condition met
 6   SVVGTVLAATQAEKAVANFDRTEW [ZC2HC1C]      Condition met
 7    KMETMYPFIVTLEGNALQGPILQK [ZNF449]  Condition not met
 8     WGRLLEQVGTMALWASQREKEVLR [ZBED2]  Condition not met
 9     TAWTEACQVEVRLLLAYNSSARIP [INTS4]  Condition not met
10      VAGTMESPFSPGLFHRLDEDWDSA [ATF6]      Condition met
11       EDPFYWVSPGVLVLLAVLPVLLLQ [MOG]  Condition not met
12     TTTDHSSNPGPVPGSSSGPVLGSS [SPAG8]      Condition met
13     NMSKEDAMVEFVKLLNRCCHLFST [ACBD3]  Condition not met
14     ENFQEGKDMSESQDEVPDEVENQF [TAF7L]      Condition met
15     TVDGLHFNSTYNARVKAFNKTGVS [TRIM9]      Condition met
16     RNLEDIHMSLEKDIAAMTNSLFID [TEKT4]      Condition met
17     KEIAKNLIQPINHTTLQCLAARVI [FEM1C]  Condition not met
18      GKVIVWDSFTTNKEHAVTMPCTWV [GNB5]  Condition not met
19      SVTDVTTSSLRLNWEAPPGAFDSF [TNXB]      Condition met
20     TLRGTGATADFADVADDFENYHKL [NETO1]      Condition met
21   LMIIVCIDQWKNKIWPEIKVPRPD [RETREG3]  Condition not met
22      PGGNVKGVWAPPAPGFGEDVPNRL [BEX5]      Condition met
23   VSCFLTFNIFDWLGRSLTAVFMWP [SLC29A1]      Condition met
24     QQQHIECVVCGDKSSGKHYGQFTC [NR2F2]      Condition met
25     ESTFMYLTLDLPTAPLYKDEKEQL [USP39]      Condition met
26    NGEARQLPEDDGLEQDLQQVMVSG [ARFIP2]      Condition met
27     VGGATPDQTTSEETVGGAILDQTT [HDAC6]      Condition met
28      ETILNAFKMLDPDGKGKINKEYIK [MYL5]      Condition met
29     SLDGRDPGNGTHGLSPEEKEQLSN [ELOA2]      Condition met
30    LASLQDGAAESPYGHPAGIDYKTT [RAB40B]      Condition met
31    YSWNNRCMVEIVQKYDPDKDEWHK [KLHL13]  Condition not met
32      ERGPYRTRKHAHHCHKRRTRSCSS [CLK3]      Condition met
33     FPEFCSSPSPPVEVKIEEPVSMEM [INTS3]      Condition met
34       CFVKDNPQKSYFIRLYGLQAGRLL [WAS]  Condition not met
35    PKTPMDGADCGIQWWNAVFIMLLI [LYSMD4]  Condition not met
36      SHAIHVEEQSDQSFSSLEPDNEQL [IQUB]      Condition met
37    PASGSGADSEPARHIFSFSWLNSL [TRIM55]  Condition not met
38    YYLHPLPAGAEYCSSARHPAWGHC [SCNN1D]  Condition not met
39   MVANILNNEAFMNQEITKAFHVRR [RHOBTB2]  Condition not met
40    AAMLRGQSDVGVAVFENKIYVVGG [KLHL13]  Condition not met
41     AFAEMLRFGDRMFYKDWWNSTSYS [SOAT1]  Condition not met
42      REWYYGNVTRHQAECALNERGVEG [NCK2]      Condition met
43     MQLKSPMPSSTTQKDSYQPPGNVY [SPAG8]      Condition met
44      CQDQNVPVENFFVKCNGALINTSD [SDE2]      Condition met
45      AAGSPRSPGPLPGARGLHLPDAGS [ISL2]      Condition met
46     GDLSGGQVLKKIAQKALDLPSSGE [HMOX1]      Condition met
47    MGWFNNEVGSMKIQSGAWVCYQYP [CRYBA1]  Condition not met
48     GMRYAFIGPLETMHLNAEGMLSYC [CRYL1]  Condition not met
49     TAIFYTLMTCEMLNRRNGSLRIAL [EDNRA]      Condition met
50  HFWQLFNALTLFNLAQDPQCKEWQ [TMEM120A]      Condition met
